# Tested on: rhinovirus HGP
# ASSAY_PROTOCOL: Inhibition of viral cytopathogenic effect (c.p.e.) of rhinovirus HGP in HeLa cells
# Assay type: cell-based, human rhinoviruses
# COND: Enterovirus, HeLa, 48 h, read-out: IC50 against rhinovirus HGP (concentration inhibiting the viral c.p.e. by 50%)
PROPERTY_LABEL: IC50 (µg/mL)
Could you give me the number in µg/mL? Just the number is fine.

// below: answered molecules
> print(dat)
                           smiles.structure  property.label  value
1  COc1cc(O)c(C(=O)/C=C/c2ccc(SC)cc2)c(OC)c1            IC50   0.03
2  CCCOc1cc(OC)cc(O)c1C(=O)/C=C/c1ccc(OC)cc1            IC50   0.06
3  CCOC(=O)Oc1cc(OC)cc(OC)c1C(=O)/C=C/c1ccc(OC)cc1            IC50   0.04

Exercise: Recall and state the measured IC50 for CCOc1ccc(/C=C/C(=O)c2c(O)cc(OC)cc2OCC)cc1 .
Solution: 0.1

Exercise: Recall and state the measured IC50 for COc1cc(O)c(C(=O)C=Cc2cccs2)c(OC)c1 .
Solution: 0.03

====

# ASSAY_PROTOCOL: in vivo
# COND: mouse, ip, DDY mice, single dose, i.p., dissolved in dimethylsulfoxide, day 21, read-out: LD50 i.p.
Each entry below lists one item and its recorded LD50 at 504 h value.

// below: answered molecules
> print(dat)
                                   molecule  property.label        value
1  COc1cc(O)c(C(=O)/C=C/c2ccc(OC)c(O)c2)c(OC)c1   LD50 at 504 h  > 500 mg/kg
2  COc1ccc(/C=C/C(=O)c2c(O)cc(OC)cc2OC)c(OC)c1   LD50 at 504 h  > 500 mg/kg
3  COc1cc(O)c(C(=O)/C=C/c2ccc(O)cc2)c(OC)c1 [2',4-dihydroxy-4',6'-dimethoxychalcone]   LD50 at 504 h  > 500 mg/kg

Note: attention shifts to another entry.
Exercise: Recall and state the measured LD50 at 504 h for COc1ccc(/C=C/C(=O)c2c(OC)cc(OC)cc2OC(C)=O)cc1 .
Solution: > 1000 mg/kg

====

# Tested on: rhinovirus HGP
# ASSAY_PROTOCOL: Inhibition of viral cytopathogenic effect (c.p.e.) of rhinovirus HGP in HeLa cells
# Format: cell-based, human rhinoviruses
# COND: Enterovirus, 48 h; HeLa cells, 2 days culture at 33° C.; read-out: IC50 against rhinovirus HGP (concentration inhibiting the viral c.p.e. by 50%)
PROPERTY_LABEL: IC50

// below: answered compounds
> print(dat)
                           smiles.structure   system.tested  property.label              value
1  COc1cc(O)c(C(=O)/C=C/c2ccc(O)c(OC)c2)c(OC)c1  rhinovirus HGP            IC50     0.3 to 1 µg/mL
2  COc1cc(O)c(C(=O)/C=C/c2ccc(N)cc2)c(OC)c1  rhinovirus HGP            IC50  0.03 to 0.1 µg/mL
3       COc1cc(O)c(C(=O)C=Cc2cccnc2)c(OC)c1  rhinovirus HGP            IC50          0.6 µg/mL

Note: attention shifts to another entry.
Exercise: Provide IC50, tested on rhinovirus HGP, for CCN(CC)c1ccc(/C=C/C(=O)c2c(O)cc(OC)cc2OC)cc1 .
Solution: 0.6 to 2 µg/mL
